What AIRE transcriptional activation functional score was measured for each of the following?
B1: library; numbered along this chain (parent)
chain: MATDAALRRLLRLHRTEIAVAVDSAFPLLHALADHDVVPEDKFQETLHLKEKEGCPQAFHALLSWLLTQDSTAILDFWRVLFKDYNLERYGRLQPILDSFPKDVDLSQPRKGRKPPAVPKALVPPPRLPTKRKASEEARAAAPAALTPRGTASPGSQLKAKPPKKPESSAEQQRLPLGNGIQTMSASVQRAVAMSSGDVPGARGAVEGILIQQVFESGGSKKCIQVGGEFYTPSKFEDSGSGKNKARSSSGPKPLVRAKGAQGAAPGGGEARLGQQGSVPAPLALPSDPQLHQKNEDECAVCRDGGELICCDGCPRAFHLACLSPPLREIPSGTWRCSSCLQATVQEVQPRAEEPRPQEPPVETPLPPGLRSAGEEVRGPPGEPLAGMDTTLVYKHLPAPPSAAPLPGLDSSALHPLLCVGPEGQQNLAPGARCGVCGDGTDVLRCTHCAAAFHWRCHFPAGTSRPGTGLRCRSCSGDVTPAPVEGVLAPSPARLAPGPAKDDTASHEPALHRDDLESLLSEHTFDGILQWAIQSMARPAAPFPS

Variants of: B1
Test: AIRE transcriptional activation functional score (insulin promoter-GFP; nonsense median 0, synonymous median 1) (normalised score); higher = higher AIRE activity (more reporter activation)
Conditions used: with insulin promoter-GFP reporter in HEK293

Solved cases (6 shown):
Mutant id	Meas value
P466H	1.46
P361R	0.983
G486K	0.91
S71K	1.2
S156R	0.968
A121Y	1.59

Parameters: items (list). Returns: AIRE transcriptional activation functional score for each item.
1. K222G
2. T524R

1. 0.393
2. 0.214

Parameters: items (list). Returns: AIRE transcriptional activation functional score for each item.
1. L67P
2. L488S

-0.378
0.854

Parameters: items (list). Returns: AIRE transcriptional activation functional score for each item.
1. T447V
2. G150I

[1.18, 1.08]

Parameters: items (list). Returns: AIRE transcriptional activation functional score for each item.
1. D515V
2. P126M

1. 0.106
2. 0.141
